// provenance: patent US20230141988A1

# assay-details: Plasma and CSF pharmacokinetic study, single sublingual, oral or subcutaneous dose, male Beagle dogs
# Assay type: in vivo
# condition-description: male, beagle, dog, in vivo, sc, 1 mg/kg, single SC 1 mg/kg; 1.00 h; mean; read-out: CSF concentration
measure: concentration at 1 h (ng/mL)
// return numeric value only (unit: ng/mL, not printed)

concentration at 1 h in this record for CN1CCc2cccc3c2[C@@H]1Cc1ccc(O)c(O)c1-3 : 11.6

---

# assay-details: Plasma and CSF pharmacokinetic study, single sublingual, oral or subcutaneous dose, male Beagle dogs
# Assay type: in vivo
# condition-description: male, beagle, dog, in vivo, sc, 1 mg/kg, single SC 1 mg/kg; 0.500 h; individual animal; read-out: CSF concentration
measure: concentration at 0.5 h (ng/mL)
// return numeric value only (unit: ng/mL, not printed)

concentration at 0.5 h in this record for CN1CCc2cccc3c2[C@@H]1Cc1ccc(O)c(O)c1-3 : 17.8

---

# assay-details: in vivo
# condition-description: male, C57BL/6J, mouse, po, 25 mg/kg, Plasma concentration, Mean
measure: concentration at 1 h (ng/mL)
// return numeric value only (unit: ng/mL, not printed)

concentration at 1 h in this record for CN1CCc2cccc3c2[C@@H]1Cc1ccc(O)c(O)c1-3 : 235

---

# assay-details: Plasma and CSF pharmacokinetic study, single sublingual, oral or subcutaneous dose, male Beagle dogs
# Format: in vivo
# condition-description: male, beagle, dog, in vivo, sc, 1 mg/kg, AUC Ratio
measure: Kp
Please respond with just the number, no unit label.

Kp in this record for CN1CCc2cccc3c2[C@@H]1Cc1ccc(O)c(O)c1-3 : 0.806

---

# assay-details: in vivo
# condition-description: male, SD, rat, iv, 0.88 mg/kg, mean plasma concentration
measure: concentration at 0.5 h (ng/mL)
// return numeric value only (unit: ng/mL, not printed)

concentration at 0.5 h in this record for CN1CCc2cccc3c2[C@H]1Cc1ccc(O)c(O)c1-3 : 0.559

---

# assay-details: Plasma and CSF pharmacokinetic study, single sublingual, oral or subcutaneous dose, male Beagle dogs
# Format: in vivo
# condition-description: male, beagle, dog, in vivo, 5 mg/kg, plasma concentration
measure: concentration at 8 h (ng/mL)
// return numeric value only (unit: ng/mL, not printed)

concentration at 8 h in this record for CN1CCc2cccc3c2[C@@H]1Cc1ccc(O)c(O)c1-3 : 2.74

---

# assay-details: in vivo
# condition-description: male, C57BL/6J, mouse, po, 25 mg/kg, Plasma concentration, Mean, male C57BL/6J mice, repeated oral dose 25 mg/kg, […] post last day (Day 4) dose
measure: concentration at […]
Hey, just the number and the unit after it is fine.

concentration at […] in this record for CN1CCc2cccc3c2[C@@H]1Cc1ccc(O)c(O)c1-3 : 1360 ng/mL

---

# assay-details: in vivo
# condition-description: male, C57BL/6J, mouse, sc, 0.0367 mg/kg, AUC∞
measure: AUC(0-inf) (ng·h/mL)
// return numeric value only (unit: ng·h/mL, not printed)

AUC(0-inf) in this record for CN1CCc2cccc3c2[C@H]1Cc1ccc(O)c(O)c1-3 : 5.99

---

# assay-details: in vivo
# condition-description: male, SD, rat
measure: concentration at 0.5 h
Hey, just the number and the unit after it is fine.

concentration at 0.5 h in this record for CN1CCc2cccc3c2[C@@H]1Cc1ccc(O)c(O)c1-3 : 31 ng/mL
